Hey, just so you know, these numbers are from patent US9920061B2.

Property: activation at 1 µM; scope: individual compounds
- tested-system: glucocerebrosidase (Gcase) (Homo sapiens, UniProt P04062)
- Sequence (P04062 40-536): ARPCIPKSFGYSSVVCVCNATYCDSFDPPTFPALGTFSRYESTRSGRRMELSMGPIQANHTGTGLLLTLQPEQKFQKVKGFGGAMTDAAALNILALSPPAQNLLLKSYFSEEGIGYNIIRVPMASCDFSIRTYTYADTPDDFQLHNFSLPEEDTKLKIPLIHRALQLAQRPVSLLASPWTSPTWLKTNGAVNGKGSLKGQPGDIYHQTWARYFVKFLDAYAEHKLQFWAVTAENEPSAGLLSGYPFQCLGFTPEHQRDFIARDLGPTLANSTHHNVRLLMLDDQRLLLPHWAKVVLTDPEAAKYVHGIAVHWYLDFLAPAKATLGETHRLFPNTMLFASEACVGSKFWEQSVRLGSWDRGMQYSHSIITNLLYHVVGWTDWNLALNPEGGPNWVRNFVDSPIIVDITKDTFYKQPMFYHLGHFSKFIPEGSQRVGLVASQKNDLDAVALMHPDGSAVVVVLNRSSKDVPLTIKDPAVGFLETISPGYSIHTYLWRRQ
- assay-details: Glucocerebrosidase (Gcase) activation assay, 4-methylumbelliferyl-beta-D-glucopyranoside substrate, with saposin C
- Format: biochemical
- particulars: 1 μM test compound; read-out: Percent Gcase Activation 1 μM Test Compound

compound=CCc1cc(N2CCCC(F)(F)C2)nc2c(C(=O)NC(C)(C)C3CC3)ncn12 quantity="activation at 1 µM" observed="> 60%"
compound="Cc1cc(-c2ccccc2)nc2c(C(=O)NC(C)C3CC3)ncn12 (centres unmarked)" quantity="activation at 1 µM" observed="> 60%"

*Q* Return the recorded activation at 1 µM value; entry: `Cc1cc(Oc2cccc(F)c2)nc2c(C(=O)N[C@@H](C)C3CC3)ncn12`
*A* 30 to 60%

*Q* State, in one line, measured activation at 1 µM of `Cc1cc(-c2ncc[nH]2)nc2c(C(=O)NC(C)(C)C3CC3)ncn12`
*A* < 30%

*Q* Hello, please tell me recorded activation at 1 µM for this one: `Cc1cc(-c2cccc(Cl)c2)nc2c(C(=O)NC(C)(C)C3CC3)ncn12`
*A* > 60%
